- target system: GST-Dm-Relish (Drosophila melanogaster, UniProt Q94527 99-473)
- Sequence: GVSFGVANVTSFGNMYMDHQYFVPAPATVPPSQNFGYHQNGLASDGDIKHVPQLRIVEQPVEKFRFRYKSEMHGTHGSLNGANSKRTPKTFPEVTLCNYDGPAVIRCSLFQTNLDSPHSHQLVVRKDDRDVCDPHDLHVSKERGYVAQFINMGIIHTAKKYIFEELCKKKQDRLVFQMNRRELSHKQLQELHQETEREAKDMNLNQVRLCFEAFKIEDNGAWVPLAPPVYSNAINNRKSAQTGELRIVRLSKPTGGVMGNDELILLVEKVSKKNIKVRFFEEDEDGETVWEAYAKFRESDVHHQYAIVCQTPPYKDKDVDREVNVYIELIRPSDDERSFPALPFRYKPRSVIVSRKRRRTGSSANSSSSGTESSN
- assay method text: protein-binding microarray (PBM); PBM: ~300 nM protein, 6 mM HEPES pH 7.8, 80 mM KCl, 0.5 mM EDTA, 0.5 mM EGTA, 6% glycerol, 35 ng/ul poly-dIdC, 1% milk, 1 h, room temperature; Ap Aiptasia and Nv Nematostella (sea anemones) / Co Capsaspora / Aq Amphimedon (sponge) / Dm Drosophila / Hu human; RHD is the Rel homology domain; high values mean tight binding
- protocol conditions: dsDNA, one strand shown
Please provide measured binding signal for the entries that follow.
Answer with a number only, understood to be in z-score.

What value of binding signal has been recorded for this entry: CCGATTAACATCACGGGAAGTCCTGATGTTAATCGGGTCTTGATTCGCTTGACGCTGCTG 7.73

What value of binding signal has been recorded for this entry: CCGATTAACATCACAATACACGCTGATGTTAATCGGGTCTTGATTCGCTTGACGCTGCTG 1.05

What value of binding signal has been recorded for this entry: CCGATTAACATCAGGGGAAGGGATGATGTTAATCGGGTCTTGATTCGCTTGACGCTGCTG 1.68

What value of binding signal has been recorded for this entry: CCGATTAACATCAGTATTCCCCATGATGTTAATCGGGTCTTGATTCGCTTGACGCTGCTG 4.54

What value of binding signal has been recorded for this entry: CCGATTAACATCAGGATAGCCCCTGATGTTAATCGGGTCTTGATTCGCTTGACGCTGCTG 2.38

What value of binding signal has been recorded for this entry: CCGATTAACATCAGGTTATTCCATGATGTTAATCGGGTCTTGATTCGCTTGACGCTGCTG 2.41

What value of binding signal has been recorded for this entry: CCGATTAACATCAGGGGAGTTCATGATGTTAATCGGGTCTTGATTCGCTTGACGCTGCTG 3.15

What value of binding signal has been recorded for this entry: CCGATTAACATCAAAAATCCCACTGATGTTAATCGGGTCTTGATTCGCTTGACGCTGCTG 7.7

What value of binding signal has been recorded for this entry: CCGATTAACATCAGGGGGTATACTGATGTTAATCGGGTCTTGATTCGCTTGACGCTGCTG 6.38

What value of binding signal has been recorded for this entry: CCGATTAACATCAGGGGACCACCTGATGTTAATCGGGTCTTGATTCGCTTGACGCTGCTG 6.1

What value of binding signal has been recorded for this entry: CCGATTAACATCACTCCCCCCCCTGATGTTAATCGGGTCTTGATTCGCTTGACGCTGCTG 4.43

What value of binding signal has been recorded for this entry: CCGATTAACATCAGGTACTTCCATGATGTTAATCGGGTCTTGATTCGCTTGACGCTGCTG 5.93

What value of binding signal has been recorded for this entry: CCGATTAACATCAAAGGGAATTCTGATGTTAATCGGGTCTTGATTCGCTTGACGCTGCTG 4.04

What value of binding signal has been recorded for this entry: CCGATTAACATCAAGAAGTCCCCTGATGTTAATCGGGTCTTGATTCGCTTGACGCTGCTG 7.58

What value of binding signal has been recorded for this entry: CCGATTAACATCAGGAAAACCCATGATGTTAATCGGGTCTTGATTCGCTTGACGCTGCTG 4.78

What value of binding signal has been recorded for this entry: CCGATTAACATCAATTTTTCCCCTGATGTTAATCGGGTCTTGATTCGCTTGACGCTGCTG 5.15

What value of binding signal has been recorded for this entry: CCGATTAACATCAAGGGGGGAGATGATGTTAATCGGGTCTTGATTCGCTTGACGCTGCTG 2.93

What value of binding signal has been recorded for this entry: CCGATTAACATCAGGGGAAACAATGATGTTAATCGGGTCTTGATTCGCTTGACGCTGCTG 3.09

What value of binding signal has been recorded for this entry: CCGATTAACATCAGGGAAGTACCTGATGTTAATCGGGTCTTGATTCGCTTGACGCTGCTG 9.88

What value of binding signal has been recorded for this entry: CCGATTAACATCAAAATTCCACCTGATGTTAATCGGGTCTTGATTCGCTTGACGCTGCTG 1.96

What value of binding signal has been recorded for this entry: CCGATTAACATCAGGGATTTCACTGATGTTAATCGGGTCTTGATTCGCTTGACGCTGCTG 6.3

What value of binding signal has been recorded for this entry: CCGATTAACATCACCGAACCCCCTGATGTTAATCGGGTCTTGATTCGCTTGACGCTGCTG 4.86

What value of binding signal has been recorded for this entry: CCGATTAACATCAGGGGGGTAACTGATGTTAATCGGGTCTTGATTCGCTTGACGCTGCTG 4.31

What value of binding signal has been recorded for this entry: CCGATTAACATCAAAAGTCCCCGTGATGTTAATCGGGTCTTGATTCGCTTGACGCTGCTG 9.25

What value of binding signal has been recorded for this entry: CCGATTAACATCACGTGGATTCCTGATGTTAATCGGGTCTTGATTCGCTTGACGCTGCTG 1.66

What value of binding signal has been recorded for this entry: CCGATTAACATCACGGGATGCCCTGATGTTAATCGGGTCTTGATTCGCTTGACGCTGCTG 5.65

What value of binding signal has been recorded for this entry: CCGATTAACATCAGGGGGCTTTATGATGTTAATCGGGTCTTGATTCGCTTGACGCTGCTG 6.23

What value of binding signal has been recorded for this entry: CCGATTAACATCACGTTCCCCCCTGATGTTAATCGGGTCTTGATTCGCTTGACGCTGCTG 4.11

What value of binding signal has been recorded for this entry: CCGATTAACATCAGGGAATTACATGATGTTAATCGGGTCTTGATTCGCTTGACGCTGCTG 8.99

What value of binding signal has been recorded for this entry: CCGATTAACATCATTTACATTCGTGATGTTAATCGGGTCTTGATTCGCTTGACGCTGCTG 1.06

What value of binding signal has been recorded for this entry: CCGATTAACATCAAATAGCCCCCTGATGTTAATCGGGTCTTGATTCGCTTGACGCTGCTG 4.26

What value of binding signal has been recorded for this entry: CCGATTAACATCAGGCTTCCCCCTGATGTTAATCGGGTCTTGATTCGCTTGACGCTGCTG 6.44

What value of binding signal has been recorded for this entry: CCGATTAACATCAGAATCCCCCCTGATGTTAATCGGGTCTTGATTCGCTTGACGCTGCTG 8.81

What value of binding signal has been recorded for this entry: CCGATTAACATCAGATATTCCCATGATGTTAATCGGGTCTTGATTCGCTTGACGCTGCTG 1.78

What value of binding signal has been recorded for this entry: CCGATTAACATCAAATGTACTAATGATGTTAATCGGGTCTTGATTCGCTTGACGCTGCTG 1.5

What value of binding signal has been recorded for this entry: CCGATTAACATCAAAATTTCCCGTGATGTTAATCGGGTCTTGATTCGCTTGACGCTGCTG 4.72
